Reference source for all entries: ChEMBL document CHEMBL4024765

Assay: Selectivity index, ratio of IC50 for CHO cells to IC50 for chloroquine-sensitive synchronized trophozoite stage of Plasmodium falciparum NF54
Type: toxicity
Details: hamster; read-out: Ratio IC50
# note: exactly 200 is not below, so it is f; use t for selectivity ratio strictly under it

Challenge: Please determine if CN(Cc1ccc(CNc2ccnc3cc(C#N)ccc23)cc1)Cc1ccccn1 is below 200 in terms of selectivity ratio.
Response given: t

Challenge: Please determine if CN(Cc1cccc(CNc2ccnc3cc(Cl)ccc23)c1)Cc1ccccn1 is below 200 in terms of selectivity ratio.
Response given: f

Challenge: Please determine if CN(Cc1ccccn1)Cc1ccccc1CNc1ccnc2cc(C#N)ccc12 is below 200 in terms of selectivity ratio.
Response given: f

Challenge: Please determine if CN(Cc1ccc(CNc2ccnc3cc(Cl)ccc23)cc1)Cc1ccccn1 is below 200 in terms of selectivity ratio.
Response given: f

Challenge: Please determine if CN(Cc1ccccc1)Cc1cccc(CNc2ccnc3cc(Cl)ccc23)c1.Cl is below 200 in terms of selectivity ratio.
Response given: f

Challenge: Please determine if CN(Cc1ccccn1)Cc1ccccc1CNc1ccnc2cc(Cl)ccc12 is below 200 in terms of selectivity ratio.
Response given: f

---

Provide the reported remaining at 0.5 h, 1 µM of each item.
Test: Metabolic stability in BALB/c mouse liver microsomes assessed as parent compound remaining at 1 uM after 30 mins in presence of NADPH by LC-MS/MS analysis
Assay type: ADME, microsome
Conditions: read-out: Stability
State the answer as a number, implicitly in %.

Challenge: What does the record list as remaining at 0.5 h, 1 µM for Cc1ncc2n1-c1ccc(Cl)cc1C(c1ccccc1F)=NC2 [MIDAZOLAM] ?
Response given: 1.33

Challenge: What does the record list as remaining at 0.5 h, 1 µM for CN(Cc1ccccn1)Cc1ccccc1CNc1ccnc2cc(Cl)ccc12 ?
Response given: 2.32

Challenge: What does the record list as remaining at 0.5 h, 1 µM for CN(Cc1ccccn1)Cc1ccccc1CNc1ccnc2cc(C#N)ccc12 ?
Response given: 2.08

Challenge: What does the record list as remaining at 0.5 h, 1 µM for CN(Cc1ccc(CNc2ccnc3cc(C#N)ccc23)cc1)Cc1ccccn1 ?
Response given: 3.63

Challenge: What does the record list as remaining at 0.5 h, 1 µM for CN(Cc1ccccc1)Cc1cccc(CNc2ccnc3cc(Cl)ccc23)c1.Cl ?
Response given: 3.57

Challenge: What does the record list as remaining at 0.5 h, 1 µM for CN(Cc1cccc(CNc2ccnc3cc(Cl)ccc23)c1)Cc1ccccn1 ?
Response given: 2.96

Challenge: What does the record list as remaining at 0.5 h, 1 µM for CN(Cc1ccc(CNc2ccnc3cc(Cl)ccc23)cc1)Cc1ccccn1 ?
Response given: 2.08

---

Molecular target: Voltage-gated inwardly rectifying potassium channel KCNH2 (Homo sapiens, UniProt Q12809)
Sequence (Q12809 whole entry): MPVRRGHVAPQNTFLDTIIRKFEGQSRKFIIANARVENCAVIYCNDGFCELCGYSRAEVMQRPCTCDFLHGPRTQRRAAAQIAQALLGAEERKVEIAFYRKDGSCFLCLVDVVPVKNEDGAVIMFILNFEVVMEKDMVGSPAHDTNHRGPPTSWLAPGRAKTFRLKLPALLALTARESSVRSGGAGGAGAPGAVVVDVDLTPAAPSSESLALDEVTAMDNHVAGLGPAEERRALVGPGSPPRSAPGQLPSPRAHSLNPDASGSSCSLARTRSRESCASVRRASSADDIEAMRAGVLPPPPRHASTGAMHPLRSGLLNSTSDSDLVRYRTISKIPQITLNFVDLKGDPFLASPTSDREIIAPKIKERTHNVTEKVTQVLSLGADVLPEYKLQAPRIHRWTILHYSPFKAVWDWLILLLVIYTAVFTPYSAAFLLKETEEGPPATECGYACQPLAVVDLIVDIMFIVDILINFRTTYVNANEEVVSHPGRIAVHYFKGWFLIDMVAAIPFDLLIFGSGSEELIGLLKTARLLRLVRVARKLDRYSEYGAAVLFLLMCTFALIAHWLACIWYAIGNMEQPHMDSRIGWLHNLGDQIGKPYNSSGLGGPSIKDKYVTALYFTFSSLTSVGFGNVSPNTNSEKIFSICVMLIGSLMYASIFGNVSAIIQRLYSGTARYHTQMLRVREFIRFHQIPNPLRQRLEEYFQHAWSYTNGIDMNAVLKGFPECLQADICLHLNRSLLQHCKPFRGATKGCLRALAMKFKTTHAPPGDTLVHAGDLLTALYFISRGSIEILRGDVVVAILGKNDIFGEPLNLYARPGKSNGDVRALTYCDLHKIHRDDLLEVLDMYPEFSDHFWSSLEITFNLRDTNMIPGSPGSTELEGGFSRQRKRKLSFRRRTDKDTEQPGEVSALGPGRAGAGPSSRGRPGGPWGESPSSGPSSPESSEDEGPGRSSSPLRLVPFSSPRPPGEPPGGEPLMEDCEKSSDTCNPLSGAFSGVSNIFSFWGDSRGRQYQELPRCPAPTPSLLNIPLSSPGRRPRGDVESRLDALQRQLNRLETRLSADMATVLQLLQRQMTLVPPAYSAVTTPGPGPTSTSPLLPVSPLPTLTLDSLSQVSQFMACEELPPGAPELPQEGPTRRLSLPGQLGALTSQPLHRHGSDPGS
Assay: Inhibition of human ERG expressed in CHO cells by automated patch clamp method
Observed Property: pIC50
pIC50 here: minus log base 10 of the concentration, concentration in moles per litre.

Challenge: What does the record list as pIC50 for CN(Cc1ccccn1)Cc1ccccc1CNc1ccnc2cc(Cl)ccc12 ?
Response given: 6.06

---

Assay: Kinetic solubility of compound in simulating fasting state biorelevant media at pH 6.5 after 2 hrs by shake flask method
Assay type: physicochemical
Conditions: fasted-state simulating biorelevant medium, read-out: Kinetic_solubility
Provide the reported solubility kinetic at 2 h of each item.
State the answer as a number, implicitly in µM.

Challenge: What does the record list as solubility kinetic at 2 h for CN(Cc1ccccn1)Cc1ccccc1CNc1ccnc2cc(C#N)ccc12 ?
Response given: 172

Challenge: What does the record list as solubility kinetic at 2 h for CN(Cc1ccc(CNc2ccnc3cc(C#N)ccc23)cc1)Cc1ccccn1 ?
Response given: 144

Challenge: What does the record list as solubility kinetic at 2 h for CN(Cc1ccccc1)Cc1cccc(CNc2ccnc3cc(Cl)ccc23)c1.Cl ?
Response given: 51.8

Challenge: What does the record list as solubility kinetic at 2 h for CN(Cc1ccccn1)Cc1ccccc1CNc1ccnc2cc(Cl)ccc12 ?
Response given: 165

Challenge: What does the record list as solubility kinetic at 2 h for CN(Cc1cccc(CNc2ccnc3cc(Cl)ccc23)c1)Cc1ccccn1 ?
Response given: 59.8

Challenge: What does the record list as solubility kinetic at 2 h for CN(Cc1ccc(CNc2ccnc3cc(Cl)ccc23)cc1)Cc1ccccn1 ?
Response given: 197
